# Target Under Test: HLA-A*24 (human)
# Method: UV peptide exchange ELISA
Observable: peptide exchange yield

{"Binder": "QFAAPLRGIYF", "peptide exchange yield": "> 75%"}
{"Binder": "VFQEKHHVI", "peptide exchange yield": "50 to 75%"}
{"Binder": "KYALLLQEL", "peptide exchange yield": "> 75%"}
{"Binder": "KYADYFLEV", "peptide exchange yield": "> 75%"}
{"Binder": "QYEPPSAPSTTF", "peptide exchange yield": "50 to 75%"}

What does the data say about its peptide exchange yield? Entry: VQQWSVAVF
50 to 75%

Lookup SLPDLTPTF
> 75%

Now consider VWSDVTPLNF and answer again.
> 75%

Follow-up entry: VFIDHPVHLKF
> 75%

Record: EFTTVLYNF
> 75%

What do you get for SYSSCYSF ?
50 to 75%

Query QYLPGWTVLF next
> 75%

# repeat for LYPEGLRLL
> 75%
